- system.name: T1, TIM-1 antigen, soluble extracellular domain of TIM-1 (CG57008-02) with a V5-HIS tag (human, UniProt Q96D42 21-288)
- T1 construct: also called TIM-1 immunogen; TIM-1 protein
- T1 sequence: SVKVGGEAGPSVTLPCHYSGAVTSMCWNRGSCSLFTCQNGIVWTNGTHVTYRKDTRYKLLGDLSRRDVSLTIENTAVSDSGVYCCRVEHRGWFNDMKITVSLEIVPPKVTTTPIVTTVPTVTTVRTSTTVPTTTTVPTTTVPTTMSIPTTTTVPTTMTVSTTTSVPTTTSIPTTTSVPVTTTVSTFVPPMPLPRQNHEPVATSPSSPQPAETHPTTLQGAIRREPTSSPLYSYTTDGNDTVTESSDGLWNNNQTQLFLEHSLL
- experiment: BIAcore 2000, 25 C, mAb captured on goat anti-human surface, TIM-1 antigen injected at 292 nM
measured.property: Kd (nM)
Field: numeric (nM). Do not append units.

Some entries whose results are on file:
# binder, number
data = [
    ("anti-TIM-1 monoclonal antibody 2.59 (antibody, V domains shown) VH: QSGPRLVKPSQTLSLTCTVSGGSISSDGYYWSWIRQHPGKGLEWIGYIYYSGSTFYNPSLKSRVAISVDTSKNQFSLKLSSVTAADTAVYYCARESPHSSNWYSGFDCWGQGTLVTVSS VL: TQSPDFQSVTPKEKVTITCRASQSIGSRLHWYQQKPDQSPKLLIKYASQSFSGVPSRFSGSGSGTDFTLTINSLEAEDAATYYCHQSSNLPFTFGPGTKVDIKR", 0.38),
    ("anti-TIM-1 monoclonal antibody 2.76 (antibody, V domains shown) VH: EQSGGGVVQPGRSLRLSCAASGFTFSSYGMYWVRQAPGKGLEWVAVIWYDGSNKYYADSVKGRFTISRDNSKNTLYLQMNSLRAEDTAVYYCARDFYDSSRYHYGMDVWGQGTTVTVSS VL: TQCPLSLPVTPGEPASISCRSSQSLLDSDDGNTYLDWYLQKPGQSPQLLIYTVSYRASGVPDRFSGSGSGTDFTLKISRVEAEDVGVYYCMQRIEFPITFGQGTRLEIKR", 0.57),
]

stdin: Entry anti-TIM-1 monoclonal antibody 2.70 (antibody, V domains shown) VH: QVQLVESGGGVVQPGRSLRLSCAASGFIFSRYGMHWVRQAPGKGLKWVAVIWYDGSNKLYADSVKGRFTISRDNSKNTLYLQMNSLRAEDTAVYYCARDYYDNSRHHWGFDYWGQGTLVTVSS VL: DIVMTQTPLSLPVTPGEPASISCRSSRSLLDSDDGNTYLDWYLQKPGQSPQLLIYTLSYRASGVPDRFSGSGSGTDFTLKISRVEAEDVGVYYCMQRVEFPITFGQGTRLEIKR : reported Kd = ?
stdout: 2.71
